Ref: ChEMBL document CHEMBL1275331

Molecular target: 5-hydroxytryptamine receptor 6 (Homo sapiens)
Sequence (P50406 whole entry): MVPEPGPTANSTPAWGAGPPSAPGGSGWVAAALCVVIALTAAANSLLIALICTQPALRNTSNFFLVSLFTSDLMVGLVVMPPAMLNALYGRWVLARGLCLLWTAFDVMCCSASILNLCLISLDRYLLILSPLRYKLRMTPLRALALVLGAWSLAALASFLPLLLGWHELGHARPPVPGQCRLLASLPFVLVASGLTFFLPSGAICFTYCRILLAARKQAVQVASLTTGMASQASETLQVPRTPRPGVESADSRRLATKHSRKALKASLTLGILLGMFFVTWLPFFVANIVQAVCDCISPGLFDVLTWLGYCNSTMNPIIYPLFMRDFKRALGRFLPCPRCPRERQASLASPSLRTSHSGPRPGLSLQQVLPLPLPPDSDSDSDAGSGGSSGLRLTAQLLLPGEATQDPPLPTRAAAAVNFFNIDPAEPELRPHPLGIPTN
Test: Displacement of [3H]LSD from human recombinant 5HT6 receptor
pIC50: −log10 of the molar value.
Value Kind: pIC50

What pIC50 value was documented for this molecule, "Nn1c(CCCCN2CCN(c3ccc4ccccc4n3)CC2)nc2c(c1=O)CCCC2" ?
< 6.00

* * *

Target: Sodium-dependent dopamine transporter (Homo sapiens, UniProt Q01959)
Sequence (Q01959 whole entry): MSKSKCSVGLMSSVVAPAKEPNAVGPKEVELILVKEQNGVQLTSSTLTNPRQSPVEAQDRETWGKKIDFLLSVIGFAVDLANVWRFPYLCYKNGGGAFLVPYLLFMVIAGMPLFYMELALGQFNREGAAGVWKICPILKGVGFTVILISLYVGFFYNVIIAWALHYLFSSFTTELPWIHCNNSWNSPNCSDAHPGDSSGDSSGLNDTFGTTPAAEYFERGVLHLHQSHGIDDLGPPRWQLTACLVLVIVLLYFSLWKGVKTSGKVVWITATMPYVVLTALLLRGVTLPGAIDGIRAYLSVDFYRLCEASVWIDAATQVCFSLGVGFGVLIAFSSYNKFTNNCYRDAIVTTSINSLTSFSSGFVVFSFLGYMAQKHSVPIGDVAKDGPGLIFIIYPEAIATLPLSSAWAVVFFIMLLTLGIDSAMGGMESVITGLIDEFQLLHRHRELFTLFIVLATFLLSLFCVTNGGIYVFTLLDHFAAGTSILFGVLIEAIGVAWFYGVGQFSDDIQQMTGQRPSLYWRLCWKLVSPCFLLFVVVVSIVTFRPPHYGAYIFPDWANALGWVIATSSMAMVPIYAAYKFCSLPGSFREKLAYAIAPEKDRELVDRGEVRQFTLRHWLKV
Assay: Displacement of [3H]BTCP from human recombinant DAT
pIC50: −log10 of the molar value.
Value Kind: pIC50

API: value(readout=pIC50, system=Sodium-dependent dopamine transporter (Homo sapiens, UniProt Q01959)) for record "Nn1c(CCCCN2CCN(c3ccc4ccccc4n3)CC2)nc2c(c1=O)CCCC2"
< 6.00
